Experiment: Pharmacokinetic (PK) test in mice
Type: in vivo, DBA/1 mice
Conditions: mouse, po; DBA/1 mice, tail vein injection and gavage, plasma, mean
Procedure: Pharmacokinetic (PK) Test The clear solution obtained by dissolving the test compound was respectively administrated by tail vein injection and gavage into the mice DBA/1 mice (overnight fasting, 7 to 8 weeks old). […] The plasma concentration was determined by LC-MS/MS. The pharmacokinetic parameters were calculated by non-compartmental model linear logarithmic trapezoid method with using WinNonlin™ Version 6.3 pharmacokinetic software.
readout_kind: AUC(0-inf) (µM·h)

CN(c1ncnc2[nH]ccc12)[C@H]1CCn2cc(C#N)nc2C1 (single isomer, unassigned) [WX614]: 10.2
CN(c1ncnc2[nH]ccc12)C1CCn2cc(C#N)nc2C1 (racemic) [WX591]: 10.5
CN(c1ncnc2[nH]ccc12)C1CCn2cc(CC#N)nc2C1 (racemic) [WX552]: 11.4

---

Assay: Pharmacokinetic (PK) test in mice
Assay type: in vivo, DBA/1 mice
Details: mouse, po; DBA/1 mice, tail vein injection and gavage, plasma, mean
readout_kind: half-life (h)

CN(c1ncnc2[nH]ccc12)[C@H]1CCn2cc(C#N)nc2C1 (single isomer, unassigned) [WX614]: 1.76

a. CN(c1ncnc2[nH]ccc12)C1CCn2cc(CC#N)nc2C1 (racemic) [WX552]
b. CN(c1ncnc2[nH]ccc12)C1CCn2cc(C#N)nc2C1 (racemic) [WX591]
Given the listed records, identify the one among a and b with higher half-life. Give the chosen item's label as your response.
b

---

The entries below are paired with their reported pIC50.
Target: UniProt O60674
Sequence (O60674 whole entry): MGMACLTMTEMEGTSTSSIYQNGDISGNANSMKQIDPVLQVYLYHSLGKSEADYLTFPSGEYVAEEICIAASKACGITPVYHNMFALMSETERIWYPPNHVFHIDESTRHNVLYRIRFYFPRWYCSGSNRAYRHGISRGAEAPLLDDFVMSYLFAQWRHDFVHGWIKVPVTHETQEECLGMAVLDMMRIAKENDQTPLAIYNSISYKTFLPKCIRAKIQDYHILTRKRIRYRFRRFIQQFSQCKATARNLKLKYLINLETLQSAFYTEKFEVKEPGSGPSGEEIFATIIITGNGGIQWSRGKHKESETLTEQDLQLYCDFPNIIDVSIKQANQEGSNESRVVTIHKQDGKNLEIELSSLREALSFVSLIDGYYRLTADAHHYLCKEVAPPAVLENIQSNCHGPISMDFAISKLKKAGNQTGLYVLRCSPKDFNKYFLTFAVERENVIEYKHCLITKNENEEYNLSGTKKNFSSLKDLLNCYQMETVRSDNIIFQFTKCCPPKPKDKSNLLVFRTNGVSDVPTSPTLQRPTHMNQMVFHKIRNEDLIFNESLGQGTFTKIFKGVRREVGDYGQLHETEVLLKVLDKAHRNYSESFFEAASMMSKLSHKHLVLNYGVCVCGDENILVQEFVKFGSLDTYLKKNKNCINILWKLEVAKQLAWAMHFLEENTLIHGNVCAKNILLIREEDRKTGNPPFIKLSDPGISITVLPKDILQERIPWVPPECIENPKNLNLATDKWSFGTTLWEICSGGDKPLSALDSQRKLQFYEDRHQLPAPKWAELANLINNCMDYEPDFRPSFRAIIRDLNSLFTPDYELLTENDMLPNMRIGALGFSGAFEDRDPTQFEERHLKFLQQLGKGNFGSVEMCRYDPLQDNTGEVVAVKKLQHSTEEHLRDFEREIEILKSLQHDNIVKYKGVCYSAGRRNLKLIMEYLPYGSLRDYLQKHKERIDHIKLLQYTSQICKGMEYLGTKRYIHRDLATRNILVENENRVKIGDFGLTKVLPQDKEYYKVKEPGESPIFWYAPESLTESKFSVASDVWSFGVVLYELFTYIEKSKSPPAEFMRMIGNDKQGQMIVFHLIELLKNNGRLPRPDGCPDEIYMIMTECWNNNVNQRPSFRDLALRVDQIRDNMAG
Test: Test for in vitro activity of JAK2 kinase (LANCE Ultra ULight peptide)
Details: recombinant human JAK2, 12 uM ATP, 60 min
pIC50: −log10 of the molar value.

Consider the following illustrative entries.
CN(c1ncnc2[nH]ccc12)C1CCn2cc(C(=O)NCCS(C)(=O)=O)nc2C1 (stereo not shown): < 6.00
CNCc1cn2c(n1)CC(N(C)c1ncnc3[nH]ccc13)CC2 (stereo not shown): < 6.00
CCOC(=O)c1cn2c(n1)CC(N(C)c1ncnc3[nH]ccc13)CC2 (stereo not shown): < 6.00
CNC(=O)c1cn2c(n1)CC(N(C)c1ncnc3[nH]ccc13)CC2 (stereo not shown): < 6.00
CN(c1ncnc2[nH]ccc12)C1CCn2cc(C(=O)NC3CC(F)(F)C3)nc2C1 (stereo not shown): < 6.00
CN(c1ncnc2[nH]ccc12)C1CCn2cc(CC#N)nc2C1 (racemic) [WX552]: 6.00 to 7.00
CN(c1ncnc2[nH]ccc12)C1CCn2cc(C#N)nc2C1 (racemic): 6.00 to 7.00
CN(c1ncnc2[nH]ccc12)[C@@H]1CCn2cc(C#N)nc2C1 (single isomer, unassigned): < 6.00
CN(c1ncnc2[nH]ccc12)C1CCn2cc(CO)nc2C1 (stereo not shown): < 6.00
CN(c1ncnc2[nH]ccc12)C1CCn2cc(CC#N)nc2C1 (single isomer, unassigned) [WX612]: < 6.00

Please give the measured pIC50 for this molecule: CN(c1ncnc2[nH]ccc12)C1CCn2cc(C(=O)NCC(F)(F)F)nc2C1 (stereo not shown)
< 6.00

Would you kindly repeat that for CN(c1ncnc2[nH]ccc12)C1CCn2cc(CC#N)nc2C1 (single isomer, unassigned) [WX613] ?
6.00 to 7.00

Would you kindly repeat that for CN(c1ncnc2[nH]ccc12)[C@H]1CCn2cc(C#N)nc2C1 (single isomer, unassigned) ?
7.00 to 8.00

Would you kindly repeat that for CN(c1ncnc2[nH]ccc12)C1CCn2cc(C(=O)NCC#N)nc2C1 (stereo not shown) ?
< 6.00

Would you kindly repeat that for CN(c1ncnc2[nH]ccc12)C1CCn2cc(CNS(C)(=O)=O)nc2C1 (stereo not shown) ?
< 6.00

Would you kindly repeat that for CN(c1ncnc2[nH]ccc12)C1CCn2cc(C(=O)NCC(F)F)nc2C1 (stereo not shown) ?
< 6.00
